# target_desc: GSPT1 (Homo sapiens, UniProt P15170+Q96SW2)
# Construct: expressed in transfected cells; host or cells: DF15
# Sequence (P15170 1-637 isoform P15170-3): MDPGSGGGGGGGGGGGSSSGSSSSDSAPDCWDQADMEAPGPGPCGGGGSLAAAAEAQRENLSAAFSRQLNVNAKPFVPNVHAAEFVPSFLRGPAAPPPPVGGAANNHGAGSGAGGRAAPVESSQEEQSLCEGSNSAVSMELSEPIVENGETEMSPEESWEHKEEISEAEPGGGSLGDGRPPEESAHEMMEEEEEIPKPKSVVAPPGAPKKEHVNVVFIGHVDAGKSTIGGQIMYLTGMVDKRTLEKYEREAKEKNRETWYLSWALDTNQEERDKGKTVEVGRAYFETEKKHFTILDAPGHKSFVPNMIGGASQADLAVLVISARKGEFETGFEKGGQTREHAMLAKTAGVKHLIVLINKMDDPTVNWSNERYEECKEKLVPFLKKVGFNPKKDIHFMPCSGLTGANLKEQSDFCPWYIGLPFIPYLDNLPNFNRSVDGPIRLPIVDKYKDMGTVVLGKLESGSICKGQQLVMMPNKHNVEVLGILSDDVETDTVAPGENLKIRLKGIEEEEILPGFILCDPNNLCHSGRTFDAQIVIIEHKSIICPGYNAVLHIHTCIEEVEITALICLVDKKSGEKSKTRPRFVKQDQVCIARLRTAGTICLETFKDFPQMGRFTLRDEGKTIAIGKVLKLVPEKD
# Sequence (Q96SW2 whole entry): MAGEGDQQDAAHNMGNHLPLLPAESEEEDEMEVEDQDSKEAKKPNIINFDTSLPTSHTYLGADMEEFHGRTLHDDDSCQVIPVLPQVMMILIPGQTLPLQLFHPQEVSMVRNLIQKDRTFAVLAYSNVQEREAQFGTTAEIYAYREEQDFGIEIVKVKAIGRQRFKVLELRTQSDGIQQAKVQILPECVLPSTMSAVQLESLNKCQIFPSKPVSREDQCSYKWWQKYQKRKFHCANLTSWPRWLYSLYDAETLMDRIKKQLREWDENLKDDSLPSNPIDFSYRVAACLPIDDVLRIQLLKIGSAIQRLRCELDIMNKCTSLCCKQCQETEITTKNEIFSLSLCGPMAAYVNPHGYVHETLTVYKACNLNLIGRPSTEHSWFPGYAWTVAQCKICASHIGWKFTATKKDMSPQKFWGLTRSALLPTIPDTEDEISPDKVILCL
# Sequence (Q16531 whole entry partner): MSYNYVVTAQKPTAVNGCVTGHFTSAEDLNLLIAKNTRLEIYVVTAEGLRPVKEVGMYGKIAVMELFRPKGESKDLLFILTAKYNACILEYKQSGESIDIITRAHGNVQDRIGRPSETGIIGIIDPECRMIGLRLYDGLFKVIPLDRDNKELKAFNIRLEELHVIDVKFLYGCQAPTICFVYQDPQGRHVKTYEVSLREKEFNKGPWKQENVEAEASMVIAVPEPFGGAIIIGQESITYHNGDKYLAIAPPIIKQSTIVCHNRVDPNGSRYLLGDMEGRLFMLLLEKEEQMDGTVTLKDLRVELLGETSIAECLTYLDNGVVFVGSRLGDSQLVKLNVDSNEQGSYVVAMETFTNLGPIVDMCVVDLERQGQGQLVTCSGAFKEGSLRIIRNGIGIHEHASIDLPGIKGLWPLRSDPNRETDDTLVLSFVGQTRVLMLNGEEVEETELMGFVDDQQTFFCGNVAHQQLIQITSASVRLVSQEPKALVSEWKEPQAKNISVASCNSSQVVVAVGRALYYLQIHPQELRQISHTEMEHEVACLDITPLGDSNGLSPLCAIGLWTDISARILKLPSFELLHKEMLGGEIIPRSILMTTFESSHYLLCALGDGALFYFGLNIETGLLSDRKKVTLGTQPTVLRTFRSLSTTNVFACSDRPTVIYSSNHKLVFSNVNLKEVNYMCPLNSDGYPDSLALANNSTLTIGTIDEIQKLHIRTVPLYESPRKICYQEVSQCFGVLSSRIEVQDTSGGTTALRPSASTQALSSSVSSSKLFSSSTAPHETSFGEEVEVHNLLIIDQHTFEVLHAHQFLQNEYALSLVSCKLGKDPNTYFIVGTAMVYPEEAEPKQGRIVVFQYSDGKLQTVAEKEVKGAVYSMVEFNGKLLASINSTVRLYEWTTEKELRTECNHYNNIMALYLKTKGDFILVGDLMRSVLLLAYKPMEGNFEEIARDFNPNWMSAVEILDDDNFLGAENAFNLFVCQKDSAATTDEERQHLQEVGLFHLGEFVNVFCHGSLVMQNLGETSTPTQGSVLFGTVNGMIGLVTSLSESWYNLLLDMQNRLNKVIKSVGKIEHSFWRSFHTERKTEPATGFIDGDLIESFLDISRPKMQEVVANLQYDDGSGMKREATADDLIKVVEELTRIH
# test_summary: ePL degradation assay, DF15/GSPT1 ePL OE cells
# Type: cell-based
# condition_set: depth of degradation (100% = no reduction, 0% = complete degradation), 20 hr, N ≥ 3
measurement_label: GSPT1 Ymin (%)

>>> recorded_measurement("O=C1CCC(N2C(=O)c3cccc(C4=C[C@@]4(C(=O)OCC(Cl)(Cl)Cl)c4ccc(Br)cc4)c3C2=O)C(=O)N1 (stereo partly shown) [Compound 20b]")
17
>>> recorded_measurement("O=C1CCC(N2Cc3c(cccc3[C@H]3C[C@@]3(C(=O)OCC(Cl)(Cl)Cl)c3ccc(Br)cc3)C2=O)C(=O)N1 (stereo partly shown) [Compound 13b]")
99
>>> recorded_measurement("O=C1CCC(N2C(=O)c3cccc(C4=C[C@]4(C(=O)OCC(Cl)(Cl)Cl)c4ccc(Br)cc4)c3C2=O)C(=O)N1 (stereo partly shown) [Compound 20a]")
12
>>> recorded_measurement("O=C1CCC(N2Cc3cccc(C4=C[C@@]4(C(=O)OCC(Cl)(Cl)Cl)c4ccc(Br)cc4)c3C2=O)C(=O)N1 (stereo partly shown) [Compound 24b]")
80
>>> recorded_measurement("O=C1CCC(N2Cc3ccc([C@H]4C[C@@]4(C(=O)OCC(Cl)(Cl)Cl)c4ccc(Br)cc4)cc3C2=O)C(=O)N1 (stereo partly shown) [Compound 17b]")
93
>>> recorded_measurement("O=C1CCC(N2Cc3cccc(C4=C[C@]4(C(=O)OCC(Cl)(Cl)Cl)c4ccc(Br)cc4)c3C2=O)C(=O)N1 (stereo partly shown) [Compound 24a]")
85
>>> recorded_measurement("O=C1CCC(N2Cc3cc([C@H]4C[C@@]4(C(=O)OCC(Cl)(Cl)Cl)c4ccc(Br)cc4)ccc3C2=O)C(=O)N1 (stereo partly shown) [Compound 15b]")
83
>>> recorded_measurement("O=C1CCC(N2Cc3cccc([C@H]4C[C@@]4(C(=O)OCC(Cl)(Cl)Cl)c4ccc(Br)cc4)c3C2=O)C(=O)N1 (stereo partly shown) [Compound 18b]")
83
>>> recorded_measurement("O=C1CCC(N2Cc3cc([C@@H]4C[C@]4(C(=O)OCC(Cl)(Cl)Cl)c4ccc(Br)cc4)ccc3C2=O)C(=O)N1 (stereo partly shown) [Compound 15a]")
96
>>> recorded_measurement("O=C1CCC(N2Cc3cccc([C@@H]4C[C@]4(C(=O)OCC(Cl)(Cl)Cl)c4ccc(Br)cc4)c3C2=O)C(=O)N1 (stereo partly shown) [Compound 18a]")
87
>>> recorded_measurement("O=C1CCC(N2Cc3c(cccc3C3=C[C@]3(C(=O)OCC(Cl)(Cl)Cl)c3ccc(Br)cc3)C2=O)C(=O)N1 (stereo partly shown) [Compound 19a]")
64
>>> recorded_measurement("O=C1CCC(N2Cc3ccc([C@@H]4C[C@]4(C(=O)OCC(Cl)(Cl)Cl)c4ccc(Br)cc4)cc3C2=O)C(=O)N1 (stereo partly shown) [Compound 17a]")
95
>>> recorded_measurement("O=C1CCC(N2Cc3cc(C4=C[C@]4(C(=O)OCC(Cl)(Cl)Cl)c4ccc(Br)cc4)ccc3C2=O)C(=O)N1 (stereo partly shown) [Compound 21a]")
81

###

# target_desc: CK1α (Homo sapiens, UniProt P48729+Q96SW2)
# Sequence (P48729 whole entry, one chain of several): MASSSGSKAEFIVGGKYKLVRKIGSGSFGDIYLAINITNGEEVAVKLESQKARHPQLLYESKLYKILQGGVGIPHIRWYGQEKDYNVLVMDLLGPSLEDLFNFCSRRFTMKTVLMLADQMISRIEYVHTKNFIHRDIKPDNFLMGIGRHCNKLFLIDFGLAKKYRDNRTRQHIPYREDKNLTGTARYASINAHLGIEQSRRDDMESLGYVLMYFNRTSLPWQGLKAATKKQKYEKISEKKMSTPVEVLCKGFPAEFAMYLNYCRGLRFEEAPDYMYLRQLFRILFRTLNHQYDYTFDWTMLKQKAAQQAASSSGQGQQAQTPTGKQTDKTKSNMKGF
# test_summary: ePL degradation assay, MDS-L/CK1α ePL OE_GSPT1G575N OE cells
# condition_set: degradation, 4 hr incubation, top conc 10 uM, N ≥ 3, read-out: CK1a EC50
# EC50 values compiled below
measurement_label: EC50 (µM)

>>> recorded_measurement("O=C1CCC(N2C(=O)c3ccc(C4=C[C@@]4(C(=O)OCC(Cl)(Cl)Cl)c4ccc(Br)cc4)cc3C2=O)C(=O)N1 (stereo partly drawn) [Compound 22b]")
1.6
>>> recorded_measurement("O=C1CCC(N2C(=O)c3ccc(C4=C[C@]4(C(=O)OCC(Cl)(Cl)Cl)c4ccc(Br)cc4)cc3C2=O)C(=O)N1 (stereo partly drawn) [Compound 22a]")
1.2
>>> recorded_measurement("O=C1CCC(N2Cc3cc([C@H]4C[C@@]4(C(=O)OCC(Cl)(Cl)Cl)c4ccc(Br)cc4)ccc3C2=O)C(=O)N1 (stereo partly drawn) [Compound 15b]")
0.22
